Target system: VEGFR-1 (Homo sapiens, UniProt P17948)
Construct: purchased R&D Systems (Minneapolis, Minn.)
Sequence (P17948 27-1338, species assumed): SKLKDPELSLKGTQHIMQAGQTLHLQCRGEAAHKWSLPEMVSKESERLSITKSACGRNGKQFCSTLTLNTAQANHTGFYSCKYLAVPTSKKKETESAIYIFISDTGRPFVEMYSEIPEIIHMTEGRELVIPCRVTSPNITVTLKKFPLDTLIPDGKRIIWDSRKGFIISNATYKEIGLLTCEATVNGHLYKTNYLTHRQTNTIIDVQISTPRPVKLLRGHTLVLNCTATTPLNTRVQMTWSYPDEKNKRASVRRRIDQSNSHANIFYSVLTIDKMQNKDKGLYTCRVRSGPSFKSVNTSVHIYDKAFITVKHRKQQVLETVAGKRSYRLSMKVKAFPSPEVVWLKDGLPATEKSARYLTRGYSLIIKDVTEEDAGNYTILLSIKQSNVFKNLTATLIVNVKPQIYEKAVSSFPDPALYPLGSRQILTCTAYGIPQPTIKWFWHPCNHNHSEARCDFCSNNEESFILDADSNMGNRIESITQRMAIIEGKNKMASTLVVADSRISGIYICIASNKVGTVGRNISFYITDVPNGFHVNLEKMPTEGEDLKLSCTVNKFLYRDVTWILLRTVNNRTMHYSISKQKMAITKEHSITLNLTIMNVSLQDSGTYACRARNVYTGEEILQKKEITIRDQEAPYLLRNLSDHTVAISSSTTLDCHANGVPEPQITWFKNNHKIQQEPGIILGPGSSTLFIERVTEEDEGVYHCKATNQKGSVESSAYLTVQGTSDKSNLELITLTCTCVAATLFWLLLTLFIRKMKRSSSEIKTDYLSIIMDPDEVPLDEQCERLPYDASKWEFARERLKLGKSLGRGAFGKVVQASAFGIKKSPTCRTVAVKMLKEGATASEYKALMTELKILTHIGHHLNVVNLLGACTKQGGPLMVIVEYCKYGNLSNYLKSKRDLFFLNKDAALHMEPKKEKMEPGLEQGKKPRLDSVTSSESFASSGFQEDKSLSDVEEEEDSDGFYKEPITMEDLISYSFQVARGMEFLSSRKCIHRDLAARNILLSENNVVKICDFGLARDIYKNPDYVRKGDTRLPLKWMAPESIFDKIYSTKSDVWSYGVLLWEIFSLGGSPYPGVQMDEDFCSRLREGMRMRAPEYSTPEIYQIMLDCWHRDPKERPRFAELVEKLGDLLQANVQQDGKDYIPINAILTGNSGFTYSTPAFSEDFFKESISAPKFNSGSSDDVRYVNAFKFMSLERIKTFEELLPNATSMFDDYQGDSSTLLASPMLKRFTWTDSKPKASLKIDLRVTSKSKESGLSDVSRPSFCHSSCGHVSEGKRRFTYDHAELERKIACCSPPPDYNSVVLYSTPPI
Protocol: Phage binding competition assay, immobilized VEGFR-1
Square brackets hold non-standard residues; d marks the D form. Peptide text beside a SMILES is read from it.
Readout: IC50

CC(C)C[C@@H](N)C(=O)N1CCC[C@@H]1C(=O)N[C@H](CCCNC(=N)N)C(=O)O [D(LPR), D-Leu-D-Pro-D-Arg] (H-[dL]-[dP]-[dR]-OH) has a reported IC50 of 1 to 10 pM

* * *

Target system: NRP-1 (Homo sapiens, UniProt O14786)
Construct: purchased R&D Systems (Minneapolis, Minn.)
Sequence (O14786 22-923): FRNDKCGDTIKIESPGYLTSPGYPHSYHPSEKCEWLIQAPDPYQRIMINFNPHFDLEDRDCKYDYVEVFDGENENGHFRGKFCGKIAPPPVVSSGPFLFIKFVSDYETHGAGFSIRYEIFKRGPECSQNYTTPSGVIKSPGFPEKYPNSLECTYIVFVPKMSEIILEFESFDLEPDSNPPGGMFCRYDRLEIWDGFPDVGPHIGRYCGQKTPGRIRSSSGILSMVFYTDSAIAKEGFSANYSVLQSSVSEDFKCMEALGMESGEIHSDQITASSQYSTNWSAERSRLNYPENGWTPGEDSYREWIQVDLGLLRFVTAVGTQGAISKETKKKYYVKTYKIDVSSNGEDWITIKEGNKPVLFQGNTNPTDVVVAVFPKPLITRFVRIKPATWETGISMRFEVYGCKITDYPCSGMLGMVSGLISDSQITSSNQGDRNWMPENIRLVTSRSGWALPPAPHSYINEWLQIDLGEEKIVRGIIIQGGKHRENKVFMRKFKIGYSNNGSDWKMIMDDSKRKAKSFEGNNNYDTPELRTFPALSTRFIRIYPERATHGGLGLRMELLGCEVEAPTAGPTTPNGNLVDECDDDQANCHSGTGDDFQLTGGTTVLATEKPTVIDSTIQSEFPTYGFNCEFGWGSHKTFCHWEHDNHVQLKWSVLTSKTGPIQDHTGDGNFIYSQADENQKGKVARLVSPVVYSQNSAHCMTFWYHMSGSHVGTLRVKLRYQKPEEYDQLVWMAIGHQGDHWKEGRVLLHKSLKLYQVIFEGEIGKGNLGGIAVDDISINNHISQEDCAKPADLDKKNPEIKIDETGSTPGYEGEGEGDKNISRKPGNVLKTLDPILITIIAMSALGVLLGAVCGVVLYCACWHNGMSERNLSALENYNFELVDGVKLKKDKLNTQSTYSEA
Protocol: Phage binding competition assay, immobilized NRP-1
Square brackets hold non-standard residues; d marks the D form. Peptide text beside a SMILES is read from it.
Readout: IC50

Lookup result for CC(C)C[C@@H](N)C(=O)N1CCC[C@@H]1C(=O)N[C@H](CCCNC(=N)N)C(=O)O [D(LPR), D-Leu-D-Pro-D-Arg] (H-[dL]-[dP]-[dR]-OH) ; measured IC50: 1 to 10 pM
